Where do these numbers come from? They come from paper PMC6853148.

# testDetails: Population PK model of venetoclax in healthy subjects
# Type: in vivo, healthy female subjects
# runParameters: female, human, plasma, oral
reportedEndpoint: Vd (L)
Respond numerically; units are L and should not be typed.

Query: Name the recorded Vd of the item CC1(C)CCC(CN2CCN(c3ccc(C(=O)NS(=O)(=O)c4ccc(NCC5CCOCC5)c([N+](=O)[O-])c4)c(Oc4cnc5[nH]ccc5c4)c3)CC2)=C(c2ccc(Cl)cc2)C1 [venetoclax, Venetoclax] in your answer.
Response: 99
